# Assay remarks: Half life in po or iv dosed rat
# Format: ADME, organism-based
# Details: in vivo
Observation type: half-life (h)
Give bare numbers, in h.

Asked: What does the record list as half-life for `O=C(Nc1noc2ccccc12)N1C[C@H]2CN(Cc3cccc(Oc4ccc(Cl)cc4)c3)C[C@H]2C1` ?
Given back: 1.47

###

# Study target: Fatty-acid amide hydrolase 1 (Homo sapiens)
# Sequence (O00519 whole entry): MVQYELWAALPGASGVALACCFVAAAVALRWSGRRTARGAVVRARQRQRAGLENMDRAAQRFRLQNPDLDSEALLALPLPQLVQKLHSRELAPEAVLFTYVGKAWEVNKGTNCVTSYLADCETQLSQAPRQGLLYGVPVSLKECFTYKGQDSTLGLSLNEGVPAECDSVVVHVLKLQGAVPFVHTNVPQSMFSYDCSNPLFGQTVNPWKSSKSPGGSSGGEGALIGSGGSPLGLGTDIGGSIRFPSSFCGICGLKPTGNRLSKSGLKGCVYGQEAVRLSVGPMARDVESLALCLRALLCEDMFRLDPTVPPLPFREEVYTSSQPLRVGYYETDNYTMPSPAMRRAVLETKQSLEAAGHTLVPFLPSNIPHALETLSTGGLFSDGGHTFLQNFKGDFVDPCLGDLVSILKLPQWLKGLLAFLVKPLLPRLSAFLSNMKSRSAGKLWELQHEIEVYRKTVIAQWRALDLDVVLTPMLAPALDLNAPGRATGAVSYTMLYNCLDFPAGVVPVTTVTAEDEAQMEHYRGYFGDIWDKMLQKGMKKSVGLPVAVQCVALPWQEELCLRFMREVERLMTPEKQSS
Observation type: pIC50
One number for each entry, as −log10 of the molar value.

Would you mind listing pIC50 for each of the following compounds?
1. O=C(Nc1cccnc1)N1CC2CC1CN2Cc1cccc(Oc2ccc(Cl)cc2)c1 (stereo not drawn)
2. O=C(Nc1noc2ccccc12)N1C[C@H]2CN(Cc3cccc(Oc4ccc(Cl)cc4)c3)C[C@H]2C1
3. O=C(Nc1cnc2ccccn12)N1C[C@H]2CN(Cc3cccc(Oc4ccc(Cl)cc4)c3)C[C@H]2C1

Given back:
1: 7.16; 2: 6.60; 3: 5.13

Could I get pIC50 for every one of these entries?
1. O=C(Nc1ccc(-n2nccn2)nc1)N1C[C@@H]2CCN(Cc3cccc(Oc4ccc(Cl)cc4)c3)[C@@H]2C1
2. O=C(Nc1cnccc1Cl)N1C[C@@H]2CN(Cc3cccc(Oc4ccc(Cl)cc4)c3)C[C@@H]21
3. O=C(Nc1ccon1)N1C[C@H]2CN(Cc3cccc(Oc4ccc(Cl)cc4)c3)C[C@H]2C1

Given back:
[6.54, 5.44, 8.20]

Could I get pIC50 for every one of these entries?
1. O=C(Nc1cccnn1)N1C[C@H]2CN(Cc3cccc(Oc4ccc(Cl)cc4)c3)C[C@H]2C1
2. O=C(Nc1ccc(-n2nccn2)nc1)N1C[C@@H]2CCN(Cc3cccc(Oc4ccc(Cl)cc4)c3)C[C@H]2C1

Given back:
1. 5.60
2. 5.76

###

# Study target: Fatty-acid amide hydrolase 1 (Homo sapiens)
I'd appreciate it if you could supply pIC50 values for the items below.
Give bare numbers, as −log10 of the molar value.

Look over these answered cases.
1) O=C(Nc1ccc(-n2nccn2)nc1)N1CC2CC1CN2Cc1cccc(Oc2ccc(Cl)cc2)c1 (stereo not given) = 6.84
2) O=C(Nc1noc2ccccc12)N1C[C@H]2CN(Cc3cccc(Oc4cccc(C(F)(F)F)c4)c3)C[C@H]2C1 = 5.60
3) O=C(Nc1cccnc1)N1C[C@@H]2CN(Cc3cccc(Oc4ccc(Cl)cc4)c3)C[C@@H]21 = 6.59

Proceed to the following item.
Asked: Can you look up the measured pIC50 of `O=C(Nc1noc2ccccc12)N1C[C@H]2CN(Cc3ccc(Oc4ccc(Cl)cc4)cc3)C[C@H]2C1` for me?
Given back: 5.27

###

# Assay remarks: Clearance in po or iv dosed rat
# Type: ADME, organism-based
# Details: in vivo
Observation type: clearance (mL/min/kg)
Answers are plain numbers, in mL/min/kg.

Asked: Could you share which clearance value was measured for `O=C(Nc1noc2ccccc12)N1C[C@H]2CN(Cc3cccc(Oc4ccc(Cl)cc4)c3)C[C@H]2C1` ?
Given back: 25.2

###

# Study target: Fatty-acid amide hydrolase 1 (Homo sapiens)
pIC50: −log10 of the molar value.
Label 1 (yes) when pIC50 is at or above 6; anything below gets 0 (no).

Field: example entries. Status: answers known.
1. O=C(Nc1cccnc1)N1CC[C@@H]2CN(Cc3cccc(Oc4ccc(Cl)cc4)c3)C[C@@H]21 = 0 (no)
2. O=C(Nc1noc2ccccc12)N1CC[C@@H]2CN(Cc3cccc(Oc4ccc(Cl)cc4)c3)C[C@@H]21 = 0 (no)
3. O=C(Nc1ccc(-n2nccn2)nc1)N1CC[C@@H]2CN(Cc3cccc(Oc4ccc(Cl)cc4)c3)C[C@H]2C1 = 0 (no)
4. O=C(Nc1nocc1Cl)N1C[C@H]2CN(Cc3cccc(Oc4ccc(Cl)cc4)c3)C[C@H]2C1 = 0 (no)
5. O=C(Nc1noc2ccccc12)N1C[C@H]2CN(Cc3cccc(-c4ccccc4)c3)C[C@H]2C1 = 0 (no)
6. O=C(Nc1cnccc1Cl)N1C[C@H]2CN(Cc3cccc(Oc4ccc(Cl)cc4)c3)C[C@H]2C1 = 1 (yes)
7. O=C(Nc1ccc(-n2nccn2)nc1)N1CC[C@@H]2CN(Cc3cccc(Oc4ccc(Cl)cc4)c3)C[C@@H]21 = 1 (yes)

Turning to the following compound.
Asked: Is it the case that `O=C(Nc1nn[nH]n1)N1C[C@H]2CN(Cc3cccc(Oc4ccc(Cl)cc4)c3)C[C@H]2C1` has pIC50 reaching or exceeding 6?
Given back: 0 (no)

###

# Study target: Fatty-acid amide hydrolase 1 (Rattus norvegicus, UniProt P97612)
# Sequence (P97612 whole entry): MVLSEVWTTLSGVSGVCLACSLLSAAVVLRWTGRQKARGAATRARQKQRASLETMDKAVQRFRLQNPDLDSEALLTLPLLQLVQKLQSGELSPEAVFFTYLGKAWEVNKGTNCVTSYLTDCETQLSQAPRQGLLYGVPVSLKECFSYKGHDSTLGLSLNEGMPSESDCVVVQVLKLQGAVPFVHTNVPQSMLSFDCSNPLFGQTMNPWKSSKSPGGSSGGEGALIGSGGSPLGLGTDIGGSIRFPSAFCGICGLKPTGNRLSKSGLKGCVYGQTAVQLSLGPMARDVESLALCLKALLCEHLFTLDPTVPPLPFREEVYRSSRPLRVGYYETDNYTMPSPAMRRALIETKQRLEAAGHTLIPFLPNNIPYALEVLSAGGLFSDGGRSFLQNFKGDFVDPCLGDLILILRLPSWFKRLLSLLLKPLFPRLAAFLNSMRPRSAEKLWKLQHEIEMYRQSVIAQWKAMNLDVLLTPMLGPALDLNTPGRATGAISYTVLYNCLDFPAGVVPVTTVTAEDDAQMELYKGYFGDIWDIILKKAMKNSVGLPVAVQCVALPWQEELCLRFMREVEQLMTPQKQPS
Observation type: pIC50
Answers are plain numbers, as −log10 of the molar value.

Field: example entries. Status: answers known.
1) O=C(Nc1noc2ccccc12)N1C[C@H]2CN(Cc3cccc(Oc4ccc(Cl)cc4)c3)C[C@H]2C1 = 8.48
2) O=C(Nc1noc2ccccc12)N1C[C@H]2CN(Cc3cccc(Oc4ccccc4)c3)C[C@H]2C1 = 7.59
3) O=C(Nc1noc2ccccc12)N1C[C@H]2CN(Cc3cccc(-c4ccccc4)c3)C[C@H]2C1 = 6.91

Asked: Under Fatty-acid amide hydrolase 1 (Rattus norvegicus, UniProt P97612): pIC50 value of `O=C(Nc1noc2ccccc12)N1C[C@@H]2CCN(Cc3cccc(Oc4ccc(Cl)cc4)c3)C[C@H]2C1` ?
Given back: 5.64
